For each of the molecules below, state its inhibition.
Test: M. tuberculosis H37Rv growth inhibitors, H37Rv strain (AID 1626);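 also: bacteria incubated seven days before Alamar blue readout; 0% = bacteria only wells and 100% = bacteria with antibiotic wells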
Details: active compounds read high, concentration not given here
In all, about 220,000 compounds went through this assay and about 2,000 (0.91%) were called active. Inconclusive results (about 2%) are left out. Not all results are given here. Measured potencies and affinities stand elsewhere.
Reply with just the number (in %).

Asked: Name the recorded inhibition of the item Cc1cc(C)nc(-n2ncc3c2CC(c2ccc(F)cc2)CC3=O)n1 (stereo unspecified) in your answer.
Given back: -3.92

Asked: Name the recorded inhibition of the item Cc1cccc(N(CC(N)=O)S(C)(=O)=O)c1C in your answer.
Given back: 9.11

Asked: Name the recorded inhibition of the item COC(=O)c1cccc(NC(=O)CCCOc2cccc(C)c2)c1 in your answer.
Given back: -9.57

Asked: Name the recorded inhibition of the item CSc1nnc(-c2ccccc2)c(-c2ccccc2)n1 in your answer.
Given back: 13.9

Asked: Name the recorded inhibition of the item CCCCNC(=O)N1CCN(C/C=C/c2ccccc2)CC1 in your answer.
Given back: 5.68

Asked: Name the recorded inhibition of the item CSc1ncc(-c2ccccc2)cn1 in your answer.
Given back: 2.05

----------
Experiment: M. tuberculosis H37Rv growth inhibitors, H37Rv strain (AID 1626);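 also: bacteria incubated seven days before Alamar blue readout; 0% = bacteria only wells and 100% = bacteria with antibiotic wells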
Conditions: active compounds read high, concentration not given here
The campaign covered roughly 220,000 compounds. About 2,000 (0.91%) were called active. Another 2% or so got no clear call; they are omitted. These entries were drawn from the full list. Entries with a potency or affinity are not part of this list.
For each of the molecules below, state its inhibition.
Reply with just the number (in %).

Asked: Name the recorded inhibition of the item CC(C)Cn1c(N)c(C(=O)COC(=O)C2CCCCC2)c(=O)n(C)c1=O in your answer.
Given back: -2.8

Asked: Name the recorded inhibition of the item O=C(Nc1cccc(F)c1)C1CCN(C(=O)c2ccc(Cl)cc2)CC1 in your answer.
Given back: -0.97

Asked: Name the recorded inhibition of the item Cc1noc(C)c1/C=N/Nc1ccccn1 in your answer.
Given back: -11.2

Asked: Name the recorded inhibition of the item CCOC(=O)CON1C(=O)C(=O)N(OCC(=O)OCC)[C@H]2CCCC[C@H]21 in your answer.
Given back: 2.73

Asked: Name the recorded inhibition of the item COc1ccc(C2C(C(=O)OCC(=O)NC(C)(C)C)CCC(=O)N2c2ccc(C)cc2)cc1OC (stereo unspecified) in your answer.
Given back: 70.3

Asked: Name the recorded inhibition of the item CCC(C)[C@H](NC(=O)NCc1ccc(S(N)(=O)=O)cc1)C(=O)OC (stereo partly specified) in your answer.
Given back: 6.6

----------
Test: M. tuberculosis H37Rv growth inhibitors, H37Rv strain (AID 1626);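 also: bacteria incubated seven days before Alamar blue readout; 0% = bacteria only wells and 100% = bacteria with antibiotic wells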
Settings: active compounds read high, concentration not given here
The campaign covered roughly 220,000 compounds. About 2,000 (0.91%) were called active. About 2% were inconclusive and are not listed. A selection follows. Measured potencies and affinities stand elsewhere.
observation.type: inhibition (%)
Reply with just the number (in %).

Asked: Name the recorded inhibition of the item COc1cccc(C(=O)NCc2cccnc2)c1 in your answer.
Given back: -9.43

Asked: Name the recorded inhibition of the item CN(C)/C=C(/C(=O)c1ccccc1)n1cncn1 in your answer.
Given back: -12.5

Asked: Name the recorded inhibition of the item Nc1ccc(OCc2ccccc2)cc1 in your answer.
Given back: 78.2

Asked: Name the recorded inhibition of the item CCC(=O)N(C)CCc1cc2c(c(OC)c1/C=N/NC(=O)[C@H]1C[C@@H]1c1ccccc1)OCO2 in your answer.
Given back: -2.15

Asked: Name the recorded inhibition of the item COc1ccc(NC(=O)C(=O)NCCN2CCN(C(=O)c3ccco3)CC2)cc1 in your answer.
Given back: 4.1

Asked: Name the recorded inhibition of the item Cc1ccc(-c2nnn(CC(=O)N3CCCCC3)n2)o1 in your answer.
Given back: -0.84

Asked: Name the recorded inhibition of the item Cc1ccc(CN(Cc2ccco2)C(=S)NCC(=O)NC2CC2)cc1 in your answer.
Given back: 5.98

Asked: Name the recorded inhibition of the item Cc1occc1-c1n[nH]c(=S)n1C in your answer.
Given back: -11.2

Asked: Name the recorded inhibition of the item COC(=O)c1ccc(C(=O)OC)c(NC(=O)CN2CCN(c3ccc(OC)cc3)CC2)c1 in your answer.
Given back: 13.8

Asked: Name the recorded inhibition of the item CN=C1SC(CC(=O)Nc2ccccc2F)C(=O)N1C (centres undefined) in your answer.
Given back: -3.74

Asked: Name the recorded inhibition of the item CS(=O)(=O)N(Cc1ccc(Cl)cc1)c1ccc(C(=O)N/N=C/c2cc3ccccc3nc2Cl)cc1 in your answer.
Given back: -6.17

Asked: Name the recorded inhibition of the item CC(C)C(=O)Nc1nnc(-c2ccccc2)o1 in your answer.
Given back: 10.9

Asked: Name the recorded inhibition of the item CN(CC(=O)N1CCN(c2ccc(F)cc2)CC1)S(=O)(=O)c1ccc(F)cc1 in your answer.
Given back: -7.27

Asked: Name the recorded inhibition of the item CC(C)N(Cc1nccn1C)C(=O)CCc1nnc(CCCc2ccccc2)o1 in your answer.
Given back: -2.35

Asked: Name the recorded inhibition of the item COc1cc(C(CCN2CCCC2)c2c(OC)cc(OC)c3ccc(=O)oc23)cc(OC)c1OC (centres undefined) in your answer.
Given back: -13

Asked: Name the recorded inhibition of the item CNC(=S)NNC(=O)c1noc(C)c1C(=O)N1CCN(C(c2ccccc2)c2ccccc2)CC1 in your answer.
Given back: 4.63

Asked: Name the recorded inhibition of the item Cn1c2ccccc2c(=O)c2c(=O)n(Cc3ccco3)c(-c3ccc(C(C)(C)C)cc3)nc21 in your answer.
Given back: 50.6

Asked: Name the recorded inhibition of the item CN1c2ccc([N+](=O)[O-])cc2CC2(C(=O)NC(=O)N(c3ccccc3)C2=O)C1c1ccccc1 (centres undefined) in your answer.
Given back: 76.5

Asked: Name the recorded inhibition of the item CCOC(=O)c1cc(NC(=O)NCc2ccco2)c(C)nc1C in your answer.
Given back: -7.42

Asked: Name the recorded inhibition of the item CCCCCCN1C=CC=C/C1=C/C=C(C#N)C#N in your answer.
Given back: -1.95

Asked: Name the recorded inhibition of the item O=C(c1ccco1)[C@@H]1[C@@H]2C(=O)N(c3ccccc3)C(=O)[C@@H]2C2c3ccccc3C=CN21 (some centres undefined) in your answer.
Given back: -13.4

Asked: Name the recorded inhibition of the item O=C(NCc1ccco1)c1ccc(COc2ccc(Cl)cc2)cc1 in your answer.
Given back: 15.4

Asked: Name the recorded inhibition of the item COC(=O)C1=C(c2ccccc2)C[C@@H]2CC[C@H]1N2C(=O)NCC1CC1 in your answer.
Given back: -3.96

Asked: Name the recorded inhibition of the item CCCCNC(=O)Nc1nnc(-c2ccccc2)o1 in your answer.
Given back: 64.8

Asked: Name the recorded inhibition of the item CC(C)(C)C(=O)Nc1nnc(-c2ccncc2)o1 in your answer.
Given back: -0.06

Asked: Name the recorded inhibition of the item CC(C)=Nc1ccccc1C1COC(=O)C1=N (centres undefined) in your answer.
Given back: -1

Asked: Name the recorded inhibition of the item COc1ccc(CN(CC2CCC(C(=O)O)CC2)C(=S)Nc2cc(C)ccc2C)cc1 (centres undefined) in your answer.
Given back: 4.91

Asked: Name the recorded inhibition of the item O=C(CSc1nc2ccccc2s1)N1c2ccccc2Sc2ccccc21 in your answer.
Given back: 1.29

Asked: Name the recorded inhibition of the item CC(NC(=O)c1ccc(Br)s1)c1ccncc1 (centres undefined) in your answer.
Given back: 0.09

Asked: Name the recorded inhibition of the item CC1CN2c3ccc([N+](=O)[O-])cc3CC3(C(=O)N(C)C(=O)N(C)C3=O)C2C(C)O1 (centres undefined) in your answer.
Given back: -12.5

Asked: Name the recorded inhibition of the item CCCC(=O)N1CCN(c2ccc(NC(=O)c3cc4ccccc4o3)cc2Cl)CC1 in your answer.
Given back: 11

Asked: Name the recorded inhibition of the item Cc1ccc(/C=N/N2CCN(c3ccncc3S(=O)(=O)N3CCCCC3)CC2)cc1 in your answer.
Given back: 7.81

Asked: Name the recorded inhibition of the item Cc1cccc(-n2c(O)c(C=Nc3ccc(O)cc3)c3ccccc3c2=O)n1 in your answer.
Given back: -0.55

Asked: Name the recorded inhibition of the item Cc1ccc(S(=O)(=O)Nc2ccc3c(c2)nc(C)n3C)cc1 in your answer.
Given back: 2.7

Asked: Name the recorded inhibition of the item O=C(Nc1ccc(N2CCOCC2)c(Cl)c1)c1ccc(Br)o1 in your answer.
Given back: 5.36

Asked: Name the recorded inhibition of the item COC(=O)COc1cc(Cl)c(C=O)cc1OC in your answer.
Given back: 4.35

Asked: Name the recorded inhibition of the item CCN(CC)c1ccc(N=Cc2c(O)n(-c3ccc(OC)cc3)c(=O)[nH]c2=O)cc1 in your answer.
Given back: -3.8

Asked: Name the recorded inhibition of the item Cc1sc2nc(-c3cccnc3)[nH]c(=O)c2c1-c1ccccc1 in your answer.
Given back: -0.42

Asked: Name the recorded inhibition of the item CCCCN(CCCC)C(=O)c1cc(Cl)ccc1[N+](=O)[O-] in your answer.
Given back: 11

Asked: Name the recorded inhibition of the item CCOc1cc(/C=C2/SC(=Nc3ccccc3)N(Cc3cccnc3)C2=O)ccc1OCC#N in your answer.
Given back: -1.44

Asked: Name the recorded inhibition of the item COc1ccc(-c2oc3ccccc3c(=O)c2OC(C)=O)cc1 in your answer.
Given back: 67.5

Asked: Name the recorded inhibition of the item COc1ccc(CCNc2nc(N3CCOCC3)nc(N3CCOCC3)n2)cc1OC in your answer.
Given back: 8.14

Asked: Name the recorded inhibition of the item COc1cc(NC(=S)Nc2ccccn2)cc(OC)c1 in your answer.
Given back: 14.7

Asked: Name the recorded inhibition of the item O=C(Nc1cccc(Cl)c1N1CCCCC1)c1ccc(N2CCOCC2)c([N+](=O)[O-])c1 in your answer.
Given back: 2.9
